Origin of the recorded values: the RNAGym collection of RNA variant scans (doi:10.1021/acssynbio.7b00057)

B1: Pistol ribozyme (parent)
chain: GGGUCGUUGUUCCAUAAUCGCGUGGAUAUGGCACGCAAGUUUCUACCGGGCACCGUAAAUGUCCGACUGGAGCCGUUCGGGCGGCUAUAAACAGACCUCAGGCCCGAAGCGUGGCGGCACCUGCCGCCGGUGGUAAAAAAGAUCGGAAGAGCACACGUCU

- Variants of: B1
- assay_method_text: aptazyme ON/OFF ratio, guanine; higher = stronger switching; co-transcriptional cleavage with and without guanine
measurement_kind: aptazyme ON/OFF ratio

[ask] Please list aptazyme ON/OFF ratio recorded for the variant U7A U8G G9U U11G C12A C13G
[reply] 1.27

[ask] Given U7A U8A G9C U10C U11G C12U , respond with its aptazyme ON/OFF ratio.
[reply] 1.08

[ask] For the variant U7G U8G G9U U11C , report aptazyme ON/OFF ratio.
[reply] 3.17

[ask] Give me measured aptazyme ON/OFF ratio, please, for this variant: U7C U8A U10A U11C C12A C13A
[reply] 1.06

[ask] Give aptazyme ON/OFF ratio for the following variant: U7A U8G G9U U10A U11C C13G
[reply] 1.09

[ask] Entry U7C U10G U11A C13U needs its aptazyme ON/OFF ratio filled in; supply it.
[reply] 1.08

[ask] Quote aptazyme ON/OFF ratio reported for U8A U10C C12A C13G please.
[reply] 1.11

[ask] Report aptazyme ON/OFF ratio, nothing else, for this variant: U7C U8A G9C U10C C13G
[reply] 1.05

[ask] Return aptazyme ON/OFF ratio (reported value) for this variant: U7C U8A G9U U10C U11G C12U C13G
[reply] 1.13

[ask] Note down aptazyme ON/OFF ratio recorded for U10G U11G C12A C13U
[reply] 1.22

[ask] Let me know recorded aptazyme ON/OFF ratio for U7A U8A G9A U10A C12G , thanks.
[reply] 1.24

[ask] Tell me its aptazyme ON/OFF ratio given U7C U8A G9U U11G C13U as the entry.
[reply] 1.17

[ask] Please report the measured aptazyme ON/OFF ratio for U7G U8A G9A U10C U11G C13U
[reply] 1.09

[ask] Answer with reported aptazyme ON/OFF ratio of U10A U11C C12A C13U
[reply] 1.23

[ask] Please list aptazyme ON/OFF ratio recorded for the variant U7G U8C G9C U10C U11G C12A C13A
[reply] 1.19

[ask] Quickly give me recorded aptazyme ON/OFF ratio for U7G U8G U10C U11A
[reply] 1.74

[ask] Find the measured aptazyme ON/OFF ratio of U7A U8C G9A U10A U11C and report it.
[reply] 1.07

[ask] Consider the variant U7G G9C U10C U11A C12G . State its measured aptazyme ON/OFF ratio.
[reply] 1.31

[ask] Provide aptazyme ON/OFF ratio value for the following variant: U7C U8A G9C U10A U11C C12U C13A
[reply] 1.18

[ask] // fetch aptazyme ON/OFF ratio given entry U7G U8A U10C U11C C12A C13A
[reply] 1.2

[ask] Fill in reported aptazyme ON/OFF ratio for this entry: U7A U8C G9C U10G C12U C13A
[reply] 1.06

[ask] Quote aptazyme ON/OFF ratio reported for U7A U8A G9U U10G C12A please.
[reply] 1.22

[ask] Supply recorded aptazyme ON/OFF ratio for U7C U8C U11G C12U C13G here.
[reply] 1.11

[ask] Identify the reported aptazyme ON/OFF ratio for the following entry. U7A G9U U10C U11C C12G C13A
[reply] 1.02

[ask] Provide one value: measured aptazyme ON/OFF ratio of U7C G9A U10C C12A C13A
[reply] 1.38

[ask] Quick one: give measured aptazyme ON/OFF ratio for U7G U8A G9A U10C U11A
[reply] 1.4

[ask] Fill in reported aptazyme ON/OFF ratio for this entry: U7G U8A G9A U10C U11G C12A C13U
[reply] 1.13

[ask] Assign aptazyme ON/OFF ratio to the following record: U7A U8G G9A C12A
[reply] 1.69

[ask] Retrieve aptazyme ON/OFF ratio measured for U7G G9C U10C U11G C12G and print it.
[reply] 1.1

[ask] Retrieve aptazyme ON/OFF ratio measured for U7G U8G G9C U10C U11A and print it.
[reply] 1.64

[ask] # return recorded aptazyme ON/OFF ratio for input U8A G9U U10C U11G C12A C13A
[reply] 1.19

[ask] Supply recorded aptazyme ON/OFF ratio for U7C U10G U11G here.
[reply] 1.23

[ask] Please give measured aptazyme ON/OFF ratio of the following entry: U7G U8C G9C U10A U11A C12U C13U
[reply] 1.08

[ask] Answer with the recorded aptazyme ON/OFF ratio of U7A U8A U10A U11G C12U only.
[reply] 1.17

[ask] Entry U7G U8C G9U U10C U11C C12G C13G needs its aptazyme ON/OFF ratio filled in; supply it.
[reply] 1.29

[ask] Tell us which aptazyme ON/OFF ratio value is on record for U8C G9A C12A C13U
[reply] 1.17

[ask] Item U7G U8A G9C U10A U11C C12A C13G : provide aptazyme ON/OFF ratio
[reply] 1.01

[ask] Return the recorded aptazyme ON/OFF ratio value; entry: G9U U11C C13A
[reply] 1.22

[ask] Provide one value: measured aptazyme ON/OFF ratio of U7C U8A U11G C12U C13G
[reply] 1.13

[ask] Return the recorded aptazyme ON/OFF ratio value; entry: U8C G9C U10C U11C C13A
[reply] 1.01

[ask] Given the variant U7C U8G U11C C12A C13G , write its reported aptazyme ON/OFF ratio.
[reply] 1.15

[ask] Identify measured aptazyme ON/OFF ratio corresponding to U7G U8A U10C C12U C13G
[reply] 1.26

[ask] Quote aptazyme ON/OFF ratio reported for U7A U8C G9U U10G C12U C13A please.
[reply] 1.61

[ask] // fetch aptazyme ON/OFF ratio given entry U7A U8C G9U U10C U11G C12A
[reply] 1.04

[ask] Supply measured aptazyme ON/OFF ratio of U7C U8A G9A U10C C12G C13G in your reply.
[reply] 1.1

[ask] Tell us which aptazyme ON/OFF ratio value is on record for U8C U10G U11C C12U C13A
[reply] 1.26

[ask] Fill in reported aptazyme ON/OFF ratio for this entry: U7C U8G G9U U10C U11A C12U C13U
[reply] 1.34

[ask] Specify measured aptazyme ON/OFF ratio for U7C U8G U10G U11C C12A C13G .
[reply] 1.1
